Cited source: paper PMC9204602

# target.under.test: HLA-A*11:01 (Homo sapiens, UniProt P04439, A114D/D185E/E176A/F33Y/L180Q/S129P/T187R)
# method.notes: Cell-based competitive MHC-I-binding assay, CJO-A lymphoblastoid cells
# stated.conditions: Table S2; […], competition with 500 nM FITC-labelled KVFPK(FITC)ALINK, serum-free RPMI, 4 hours, 37°C, peptide from 100 µM, flow cytometry; analyzed three times, mean; read-out: EC/IC50 (M) Binding assay: IC50, HLA-A*11:01
No end group written: not given here.
assay.readout: IC50 (M)

| sequence.chain | assay.readout | recorded.result |
| --- | --- | --- |
| VVGARGVGK | IC50 | 0.000157 |

* * *

# target.under.test: HLA-A*02:01 (Homo sapiens, UniProt P04439, D140Y/D185E/D98H/E176V/E277Q/G131W/G231S/I119V/I121R/I166T/I218V/L300P/L318F/N151K/N90K/P208A/P217A/Q86G/Q94H/R138H/R169H/T345S)
# method.notes: MHC-I stabilization assay, TAP-deficient T2 cells
# Type: binding
No end group written: not given here.
Note to self: use label 1 only for EC50 readings below 70 µM; a reading exactly at 70 µM still gets label 0.

| sequence.chain | group |
| --- | --- |
| LVVVGARGV | label 0 |
| LVVVGASGV | label 0 |
| YLVVGARGV | label 1 |
| KLVVVGARGV | label 0 |
| YLVVGASGV | label 1 |

* * *

# target.under.test: HLA-A*02:01 (Homo sapiens, UniProt P04439, D140Y/D185E/D98H/E176V/E277Q/G131W/G231S/I119V/I121R/I166T/I218V/L300P/L318F/N151K/N90K/P208A/P217A/Q86G/Q94H/R138H/R169H/T345S)
# method.notes: MHC-I stabilization assay, TAP-deficient T2 cells
# Type: binding
# stated.conditions: Table 1; T2 cells, HLA-A*02:01 stabilization, serum-free RPMI, 4 hours, 37°C, peptide from 100 µM in at least 8 serial dilution steps, flow cytometry MFI (BB7.2); half-maximal MFI; analyzed three times, mean; read-out: EC50 (µM) Binding assay
No end group written: not given here.
A collection of sequences and their measured log10(EC50)
assay.readout: log10(EC50) (log10 of the value in µM)

| sequence.chain | recorded.result |
| --- | --- |
| LLVVGARGV | 1.37 |
| LVVVGAAGV | 2.28 |
| YLVVGADGV | 1.13 |
| YLVVVGADGV | 0.75 |
| LVVVGADGV | 2.66 |
| YVVVGARGV | 1.71 |
| YLVVGAAGV | 1.21 |
| YLVVGAVGV | 1.36 |
| YVVVGACGV | 2.14 |
| YLVVVGAVGV | 1.19 |
| YLVVVGACGV | 1.98 |
| YVVVGADGV | 2.30 |
| LVVVGACGV | 2.79 |
| LLVVGASGV | 1.96 |
| YVVVGAVGV | 1.45 |
| LLVVGAVGV | 1.41 |
| YVVVGAAGV | 2.07 |
| LLVVGADGV | 1.92 |
| YLVVVGAAGV | 1.44 |
| LLVVGAAGV | 1.24 |
| LLVVGACGV | 1.87 |
| YLVVVGASGV | 1.03 |
| YLVVGACGV | 1.42 |
| YVVVGASGV | 2.32 |
